- Tested on: PKCε
- measurement.notes: PKCε translocation to the plasma membrane in cultured dorsal root ganglia neurons
- Assay type: cell-based, rat
- reported.conditions: rat DRG neurons, prokineticin 2 stimulus; read-out: IC50, inhibition of PKCF translocation obtained with PK2
- Experimental: FIG. 1 reports the time-course (A) and washout (B) of CR4056 effect on PKCF translocation induced by bradykinin (BK 1 μM). In Panel A, open symbols represent the percentage of neurons positive for PKCF translocation following BK stimulation in absence of the drug. […] In Panel B, BK-induced PKCF translocation was evaluated before (open symbol) and after pre-incubation of CR4056 ([…]) at different time intervals (from 10 minutes to 8 hours) (filled symbols). […]
attribute.measured: IC50 (nM)

[
  {
    "compound": "c1ccc(-c2ncc3cc(-n4ccnc4)ccc3n2)cc1 [CR4056, 2-phenyl-6-(1H-imidazol-1-yl)quinazoline]",
    "readout.units": "nM",
    "recorded.measurement": 170
  }
]

----------
- measurement.notes: Brain penetration: plasma and brain levels by LC/MS/MS after oral administration
- Format: in vivo, rat
- reported.conditions: male, Sprague Dawley, rat, plasma, po, 30 mg/kg, male Sprague Dawley rats, 30 mg/kg PO, fasted, read-out: Plasmatic Concentration, mean of 3 rats

[
  {
    "smiles.str": "c1ccc(-c2ncc3cc(-n4ccnc4)ccc3n2)cc1",
    "readout.units": "ng/mL",
    "concentration at 1 h": 2720
  }
]

----------
- measurement.notes: Brain penetration: plasma and brain levels by LC/MS/MS after oral administration
- Assay type: in vivo, rat
- reported.conditions: male, Sprague Dawley, rat, brain/plasma, po, 30 mg/kg, individual male Sprague Dawley rats, 30 mg/kg PO, fasted, read-out: Brain/plasma ratio

[
  {
    "smiles.str": "c1ccc(-c2ncc3cc(-n4ccnc4)ccc3n2)cc1",
    "Kp at 1 h": 11.7
  }
]
